The following molecules are shown together with reported MIC90 values.
- Tested on: Lancefield group C, F, G streptococci
- protocol details: MIC, CLSI broth microdilution, clinical isolates
- Type: cell-based
- condition set: G streptococci (N = 50), read-out: MIC90
measurement type: MIC90 (µg/mL)

# molecule, units of measure, reading
data = [
    ("NC[C@H]1O[C@H](O[C@H]2[C@H](O)[C@@H](O[C@H]3O[C@H](CO)[C@@H](O)[C@H](N)[C@H]3O)[C@H](N)C[C@@H]2N)[C@H](N)C[C@@H]1O", "µg/mL", 16),
    ("COc1c(N2CCNC(C)C2)c(F)cc2c(=O)c(C(=O)O)cn(C3CC3)c12 (stereo not drawn)", "µg/mL", 0.25),
    ("COc1c(N2C[C@@H]3CCCN[C@@H]3C2)c(F)cc2c(=O)c(C(=O)O)cn(C3CC3)c12", "µg/mL", 0.12),
]

---

The following compounds are shown together with reported MIC Range values.
- System: Legionella pneumophila
- protocol details: microbe, parasite or virus in culture
- Format: cell-based
- condition set: Legionella pneumophila (N = 50)

# compound, target or system, MIC Range
data = [
    ("N[C@@H]1CCCCN(c2c(F)cc3c(=O)c(C(=O)O)cn(C4CC4)c3c2Cl)C1", "Legionella pneumophila", "0.015 to 0.06 µg/mL"),
    ("COc1c(N2CCNC(C)C2)c(F)cc2c(=O)c(C(=O)O)cn(C3CC3)c12 (centres unmarked)", "Legionella pneumophila", "0.015 to 0.06 µg/mL"),
    ("NC[C@H]1O[C@H](O[C@H]2[C@H](O)[C@@H](O[C@H]3O[C@H](CO)[C@@H](O)[C@H](N)[C@H]3O)[C@H](N)C[C@@H]2N)[C@H](N)C[C@@H]1O", "Legionella pneumophila", "0.25 to 4 µg/mL"),
    ("CC[C@H]1OC(=O)[C@H](C)[C@@H](O[C@H]2C[C@@](C)(OC)[C@@H](O)[C@H](C)O2)[C@H](C)[C@@H](O[C@@H]2O[C@H](C)C[C@H](N(C)C)[C@H]2O)[C@](C)(O)C[C@@H](C)CN(C)[C@H](C)[C@@H](O)[C@]1(C)O", "Legionella pneumophila", "0.03 to 1 µg/mL"),
    ("C[C@H]1COc2c(N3CCN(C)CC3)c(F)cc3c(=O)c(C(=O)O)cn1c23", "Legionella pneumophila", "0.015 to 0.06 µg/mL"),
]
